Here, each record is paired with measured melting point data.

Past entries and their recorded results:
>>> resultvalue("CCN(CC)C(=O)Cc1nn(-c2cccnc2)c(=O)c2c1c1ccc(Cl)cc1n2C [Compound 9]")
"199 to 200 °C"
>>> resultvalue("CN(C)C(=O)Cc1nn(-c2ccncc2)c(=O)c2c1c1ccc(Cl)cc1n2C.Cl")
"275 to 279 °C"
>>> resultvalue("CN(C)C(=O)Cc1nn(-c2ccccn2)c(=O)c2c1c1ccc(F)cc1n2C [Compound 1]")
"222 to 223 °C"

What measured melting point goes with Cc1ccc(-n2nc(CC(=O)N(C)C)c3c4ccc(Cl)cc4n(C)c3c2=O)cn1 [Compound 8] ?
253 to 255 °C

Entry CN(C)C(=O)Cc1nn(-c2cccnc2)c(=O)c2c1c1ccc(Cl)cc1n2C.Cl please
250 to 252 °C

Entry CN(C)C(=O)Cc1nn(-c2cccnc2)c(=O)c2c1c1ccc(F)cc1n2C.Cl please
244 to 250 °C

Entry CN(C)C(=O)Cc1nn(-c2cccnc2)c(=O)c2c1c1ccc(Cl)cc1n2C [Compound 5] please
255 to 256 °C

Entry CN(C)C(=O)Cc1nn(-c2ccccn2)c(=O)c2c1c1ccc(Cl)cc1n2C [Compound 4] please
183 to 184 °C

Entry CN(C)C(=O)Cc1nn(-c2ccncc2)c(=O)c2c1c1ccc(F)cc1n2C.Cl please
267 to 270 °C
